Target: T1, human Y2 receptor (human, UniProt P49146 1-381)
T1 construct: whole, on cells; used as membrane fraction of hY2R/CHO cells; also called human NPY2R; hY2R
T1 sequence (looked up): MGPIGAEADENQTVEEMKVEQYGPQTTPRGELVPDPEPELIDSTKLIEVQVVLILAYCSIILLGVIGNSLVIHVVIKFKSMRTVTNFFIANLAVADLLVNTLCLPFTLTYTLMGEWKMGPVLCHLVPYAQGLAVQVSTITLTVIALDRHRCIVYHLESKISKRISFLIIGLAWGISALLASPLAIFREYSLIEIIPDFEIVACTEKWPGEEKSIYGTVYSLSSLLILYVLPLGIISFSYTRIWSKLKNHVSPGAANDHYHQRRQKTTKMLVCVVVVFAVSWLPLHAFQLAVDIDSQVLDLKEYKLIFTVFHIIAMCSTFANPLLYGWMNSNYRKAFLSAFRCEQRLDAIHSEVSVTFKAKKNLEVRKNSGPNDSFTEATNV
Assay: RBA: [125I]-PYY displacement, hY2R/CHO membranes
Non-standard residues stand in square brackets, D forms with d. No end group written: not given here. Phe(3-F) = N[C@@H](Cc1cccc(F)c1)C(=O)O; Cha = N[C@@H](CC1CCCCC1)C(=O)O; Cit = NC(=O)NCCC[C@H](N)C(=O)O; Aib = CC(C)(N)C(=O)O
observation_type: IC50 Ratio (vs PYY(3-36)) (ratio)
Hi! Could you send only the number? It should be in ratio, unit omitted.

The examples below pair each entry with its known result.
| binder | observation_type | value_measured |
| --- | --- | --- |
| RYYASLRAYINLITRQRY-NH2 (also called compound No. 2) [[Ala26, Ile28,31]-PYY(19-36)] | IC50 Ratio (vs PYY(3-36)) | 4.9 |
| Ac-S[dP]RH[Cha][Cha]NL[Aib]TRQR[Phe(3-F)]-NH2 (SMILES CC(=O)N[C@@H](CO)C(=O)N1CCC[C@@H]1C(=O)N[C@@H](CCCNC(=N)N)C(=O)N[C@@H](Cc1c[nH]cn1)C(=O)N[C@@H](CC1CCCCC1)C(=O)N[C@@H](CC1CCCCC1)C(=O)N[C@@H](CC(N)=O)C(=O)N[C@@H](CC(C)C)C(=O)NC(C)(C)C(=O)N[C@H](C(=O)N[C@@H](CCCNC(=N)N)C(=O)N[C@@H](CCC(N)=O)C(=O)N[C@@H](CCCNC(=N)N)C(=O)N[C@@H](Cc1cccc(F)c1)C(N)=O)[C@@H](C)O, also called compound No. 195) [Ac-[D-Pro24, Cha27,28, Aib31, Phe(3F)36]-PYY(23-36)] | IC50 Ratio (vs PYY(3-36)) | 2.1 |

// moving on: another record for IC50 Ratio (vs PYY(3-36))
Qu. Which IC50 Ratio (vs PYY(3-36)) value is on record for Ac-S[dP]RH[Cit][Cha]NL[Aib]TRQR[Cha]-NH2 (SMILES CC(=O)N[C@@H](CO)C(=O)N1CCC[C@@H]1C(=O)N[C@@H](CCCNC(=N)N)C(=O)N[C@@H](Cc1c[nH]cn1)C(=O)N[C@@H](CCCNC(N)=O)C(=O)N[C@@H](CC1CCCCC1)C(=O)N[C@@H](CC(N)=O)C(=O)N[C@@H](CC(C)C)C(=O)NC(C)(C)C(=O)N[C@H](C(=O)N[C@@H](CCCNC(=N)N)C(=O)N[C@@H](CCC(N)=O)C(=O)N[C@@H](CCCNC(=N)N)C(=O)N[C@@H](CC1CCCCC1)C(N)=O)[C@@H](C)O, also called compound No. 146) [Ac-[D-Pro24, Cit27, Cha28,36, Aib31]-PYY(23-36)] ?
Ans. 36
